Test system: MCF7
protocol-summary: Antiproliferative activity against human MCF7 cells after 72 hrs by MTT assay
Type: functional, cell-based
condition-info: MCF7, 72 h
measurement-label: IC50 (nM)

>  <line-notation>
C=C1C(=O)[C@]23[C@H](OC(C)=O)[C@H]1CC[C@H]2[C@]12C=C[C@H](OC(C)=O)C(C)(C)[C@H]1[C@H](O)[C@]3(O)OC2

>  <measurement-label>
IC50

>  <measurement-unit>
nM

>  <experimental-result>
4130

$$$$
>  <line-notation>
C=C1C(=O)[C@]23[C@H](OC(=O)CCCCCCC)[C@H]1CC[C@H]2[C@]12C=CCC(C)(C)[C@H]1[C@H](O)[C@]3(O)OC2

>  <measurement-label>
IC50

>  <measurement-unit>
nM

>  <experimental-result>
2440

$$$$
>  <line-notation>
C=C1C(=O)[C@]23[C@H](O)[C@H]1CC[C@H]2[C@@]12CO[C@@]3(O)[C@@H](O)[C@@H]1C(C)(C)C[C@H]1O[C@H]12

>  <measurement-label>
IC50

>  <measurement-unit>
nM

>  <experimental-result>
5370

$$$$
>  <line-notation>
C=C1C(=O)[C@]23[C@H](OC(=O)c4cccc(C)c4)[C@H]1CC[C@H]2[C@]12C=CCC(C)(C)[C@H]1[C@H](O)[C@]3(O)OC2

>  <measurement-label>
IC50

>  <measurement-unit>
nM

>  <experimental-result>
180

$$$$
>  <line-notation>
C=C1C(=O)[C@]23[C@H](OC(=O)/C=C/c4ccccc4)[C@H]1CC[C@H]2[C@]12C=CCC(C)(C)[C@H]1[C@H](O)[C@]3(O)OC2

>  <measurement-label>
IC50

>  <measurement-unit>
nM

>  <experimental-result>
80

$$$$
>  <line-notation>
C=C1C(=O)[C@]23[C@H](OC(=O)/C=C/c4ccc(OC)cc4)[C@H]1CC[C@H]2[C@]12C=CCC(C)(C)[C@H]1[C@H](O)[C@]3(O)OC2

>  <measurement-label>
IC50

>  <measurement-unit>
nM

>  <experimental-result>
950

$$$$

Values were extracted from ChEMBL document CHEMBL3997810.
